Listing of recorded normalized growth by entry.
Experiment: chemical genetic growth profiling, strain panel (AID 1159580);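 further: tested at 20 µM; growth read once vehicle control cultures reached saturation at 30 °C; 1 = growth at the plate median or of vehicle wells; lower values mean less growth of the strain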
Conditions: S. cerevisiae deletion strains, growth OD, locus YGR229C, strain SMI1, stronger effect = lower value
The whole screen tested about 5,500 compounds, of which about 2,000 (36%) were called active. Roughly 18% stayed inconclusive and do not appear here. The list shows a part of the results.

{"columns": ["compound", "normalized growth"],
 "data": [
  ["O=[N+]([O-])c1ccc2c(c1)NC(c1ccc([N+](=O)[O-])s1)O2 (centres undefined)", 0.0516],
  ["CCOC(=O)[C@H](CCc1ccccc1)N[C@@H](C)C(=O)N1[C@H](C(=O)O)C[C@@H]2CCC[C@@H]21", 1.01],
  ["C[N+]1(C)C2CC(OC(=O)[C@@H](CO)c3ccccc3)CC1C1OC12 (some centres undefined)", 1.05],
  ["O=C(O)CN(CC(=O)O)Cc1cc2c(-c3ccccc3C(=O)O)c3cc(CN(CC(=O)O)CC(=O)O)c(=O)cc-3oc2cc1O", 0.976]
]}
